TGT: DDX3X N-IDR (human, UniProt O00571 1-132)
Sequence (O00571 1-132): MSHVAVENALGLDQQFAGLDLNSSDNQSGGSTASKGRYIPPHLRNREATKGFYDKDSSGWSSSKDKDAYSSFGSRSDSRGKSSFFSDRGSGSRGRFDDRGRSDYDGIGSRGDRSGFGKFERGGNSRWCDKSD
ASSAY PROTOCOL: EMSA; 125 mM KCl; EMSA: 20 mM K-phosphate pH 7.0, 125 mM KCl, 1 mM DTT, 0.005% Tween-20, 10% glycerol (1 mM ATP-Mg for MBP-FL/Core-C), gel at room temperature; ITC: 20 mM K-phosphate pH 7.0, 50 mM KCl, 25 C; NMR: 200 mM KCl (also 120 mM), 10 C, 50 uM
MEASUREMENT SETUP: protein: recombinant; tags: His6-SUMO tag cleaved (Ulp1); label: 5'-FAM in EMSA; G4, heterogeneous
READOUT: Kd (nM)
Just the number in nM, nothing appended.

Field request: Kd | item: AGUAGGGAGCGGCGUGCCGUGGGGC (structured_RNA) [ODC1 150-174]
1970
